Tested on: S. aureus ATCC BAA-1720 (methicillin resistant)
Test Summary: MIC against clinically isolated strain 3
Type: cell-based
Experimental Setup: Staphylococcus aureus, ATCCBAA1720
MIC reference

For orientation, consider the following solved cases.
Compound	Reading
COc1cccc(OC)c1C(=O)N[C@@H]1C(=O)N2[C@@H]1SC(C)(C)[C@@H]2C(=O)O [Methicillin, reference compound]	> 30 µM
FC(F)(F)c1ccc(CN2CCCN(CCc3cc(-c4ccccc4)nc(-c4ccncc4)n3)CC2)cc1	10 µM
CC(C)c1ccc(CN2CCCN(CCc3cc(-c4ccccc4)nc(-c4ccncc4)n3)CC2)cc1	10 µM

// moving on: another record for MIC
Input: // MIC lookup, key: `CCC(CC)c1cc(CCN2CCCN(Cc3ccc(C(F)(F)F)cc3)CC2)nc(-c2ccncc2)n1`
Output: 12 µM

###

MIC reference
System: USA300 #417 (community-associated MRSA)
Test Summary: MIC against clinically isolated strain 6
Assay type: cell-based, S. aureus
Experimental Setup: Staphylococcus aureus
Numeric only. Scale: µM

Smiles Representation	MIC [µM]
CCC(CC)c1cc(CCN2CCCN(Cc3ccc(C(F)(F)F)cc3)CC2)nc(-c2ccncc2)n1	12

Input: Reported MIC for USA300 #417 (community-associated MRSA), given `FC(F)(F)c1ccc(CN2CCCN(CCc3cc(-c4ccccc4)nc(-c4ccncc4)n3)CC2)cc1` ?
Output: 10

Input: Note, next up: `CC(C)c1ccc(CN2CCCN(CCc3cc(-c4ccccc4)nc(-c4ccncc4)n3)CC2)cc1`
Output: 10

###

Tested on: S. aureus strain ATCC29213
Test Summary: MIC, broth microdilution antimicrobial susceptibility test (CLSI)
Format: cell-based
Experimental Setup: S. aureus 29213; growth inhibited by ≥90%, 18 h
Measured Quantity: MIC^b: Minimum inhibitory concentration against S. aureus (µM)
Numeric only. Scale: µM

For orientation, consider the following solved cases.
Compound	Reading
Fc1ccc(CN2CCCN(CCc3cc(-c4ccccc4)nc(-c4ccncc4)n3)CC2)cc1F [Compound 14dv_amine12]	10
CCC(CC)c1cc(CCN2CCCN(Cc3ccc(C(C)C)cc3)CC2)nc(-c2ccncc2)n1 [Compound 14av_amine06]	16

Input: // MIC^b: Minimum inhibitory concentration against S. aureus lookup, key: CCC(CC)c1cc(CCN2CCCN(Cc3ccc(Cl)cc3)CC2)nc(-c2ccncc2)n1 [Compound 14av_amine13]
Output: 13

Input: Note, next up: CCC(CC)c1cc(CCN2CCCN(Cc3ccc(Br)cc3)CC2)nc(-c2ccncc2)n1 [Compound 14av_amine08]
Output: 16
